target-under-test: 2-oxoglutarate dehydrogenase complex (OGDHC) (Rattus norvegicus, UniProt Q01205+Q5XI78+Q6P6R2)
Sequence (Q5XI78 41-1023): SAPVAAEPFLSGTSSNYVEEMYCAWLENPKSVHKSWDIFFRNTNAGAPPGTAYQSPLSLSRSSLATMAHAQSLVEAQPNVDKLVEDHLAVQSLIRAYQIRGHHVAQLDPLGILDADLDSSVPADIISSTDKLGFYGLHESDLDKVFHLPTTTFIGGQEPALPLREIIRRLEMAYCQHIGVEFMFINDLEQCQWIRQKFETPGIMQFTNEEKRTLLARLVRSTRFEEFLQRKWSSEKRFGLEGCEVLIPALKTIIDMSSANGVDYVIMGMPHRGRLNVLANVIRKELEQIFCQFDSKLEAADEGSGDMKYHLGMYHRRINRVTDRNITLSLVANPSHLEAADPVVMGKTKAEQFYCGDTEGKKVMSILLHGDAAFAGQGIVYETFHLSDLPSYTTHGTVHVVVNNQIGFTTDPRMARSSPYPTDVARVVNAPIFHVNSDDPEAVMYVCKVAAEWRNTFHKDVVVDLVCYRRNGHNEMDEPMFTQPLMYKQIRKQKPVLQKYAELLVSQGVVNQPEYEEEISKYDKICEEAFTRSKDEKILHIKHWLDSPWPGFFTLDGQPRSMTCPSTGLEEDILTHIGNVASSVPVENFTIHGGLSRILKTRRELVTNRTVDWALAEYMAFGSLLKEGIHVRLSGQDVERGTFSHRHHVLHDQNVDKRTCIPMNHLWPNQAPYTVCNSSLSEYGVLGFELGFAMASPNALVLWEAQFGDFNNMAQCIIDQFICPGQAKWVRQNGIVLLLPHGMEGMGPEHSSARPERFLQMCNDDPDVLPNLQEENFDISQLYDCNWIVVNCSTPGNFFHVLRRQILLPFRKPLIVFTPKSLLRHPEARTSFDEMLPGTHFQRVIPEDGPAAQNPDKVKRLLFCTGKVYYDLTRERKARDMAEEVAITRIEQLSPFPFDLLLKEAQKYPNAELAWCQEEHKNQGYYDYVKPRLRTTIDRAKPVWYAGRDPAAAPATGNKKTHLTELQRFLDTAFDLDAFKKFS
Sequence (Q01205 69-454): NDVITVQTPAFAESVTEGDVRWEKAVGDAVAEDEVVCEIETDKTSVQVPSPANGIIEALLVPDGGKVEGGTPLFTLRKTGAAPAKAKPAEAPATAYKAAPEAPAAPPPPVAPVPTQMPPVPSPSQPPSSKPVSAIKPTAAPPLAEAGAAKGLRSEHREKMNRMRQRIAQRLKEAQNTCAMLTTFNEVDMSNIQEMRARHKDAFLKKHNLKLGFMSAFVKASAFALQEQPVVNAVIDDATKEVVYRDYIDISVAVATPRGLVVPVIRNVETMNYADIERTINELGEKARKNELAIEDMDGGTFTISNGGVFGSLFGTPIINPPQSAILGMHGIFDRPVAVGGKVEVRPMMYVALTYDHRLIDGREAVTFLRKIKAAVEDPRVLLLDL
Sequence (Q6P6R2 36-509): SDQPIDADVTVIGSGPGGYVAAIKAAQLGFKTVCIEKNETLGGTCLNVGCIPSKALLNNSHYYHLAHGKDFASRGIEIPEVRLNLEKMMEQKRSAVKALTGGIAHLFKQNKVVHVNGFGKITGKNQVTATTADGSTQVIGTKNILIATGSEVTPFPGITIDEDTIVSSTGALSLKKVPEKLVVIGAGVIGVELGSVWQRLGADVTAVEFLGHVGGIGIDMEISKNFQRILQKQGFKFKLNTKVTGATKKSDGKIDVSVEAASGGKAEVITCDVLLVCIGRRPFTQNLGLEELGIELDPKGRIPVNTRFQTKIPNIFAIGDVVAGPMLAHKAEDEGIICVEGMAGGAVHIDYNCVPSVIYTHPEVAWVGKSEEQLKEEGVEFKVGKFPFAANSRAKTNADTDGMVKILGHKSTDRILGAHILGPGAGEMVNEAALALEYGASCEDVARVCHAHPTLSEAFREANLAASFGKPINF
measurement-protocol: biochemical
pIC50: −log10 of the molar value.

chemical-string: C[P+](c1ccccc1)(c1ccccc1)c1ccccc1
pIC50: 2.41

// data source = paper PMC4990249
